// provenance: patent US9637492B2

Data export: IC50 values recorded with UniProt P42336.

# Structure Notation, Tgt, IC50
rows = [
    ("CC(C)n1nc(-c2ccc3nc(NC4CC4)sc3c2)c2c(N)ncnc21", "UniProt P42336", "> 1000 nM"),
    ("CC(=O)Nc1nc2ccc(-c3nn(C)c4ncnc(N)c34)cc2s1", "UniProt P42336", "≤ 1000 nM"),
    ("CC(C)n1nc(-c2ccc3nc(N4CCOCC4)sc3c2)c2c(N)ncnc21", "UniProt P42336", "> 1000 nM"),
    ("CC(C)n1nc(-c2ccc3nc(NC(=O)C4CC4)sc3c2)c2c(N)ncnc21", "UniProt P42336", "≤ 1000 nM"),
    ("CC(C)n1nc(-c2ccc3nc(NCCO)sc3c2)c2c(N)ncnc21", "UniProt P42336", "≤ 1000 nM"),
]

* * *

pIC50: −log10 of the molar value.
Data export: pIC50 values recorded with mTORC (Homo sapiens).
Parameter Measured: pIC50

# Compound, Parameter Measured, Measured
data = [
    ("CCC(=O)Nc1nc2ccc(-c3nn(C(C)C)c4ncnc(N)c34)cc2s1 [Compound 9]", "pIC50", "≥ 6.30"),
    ("CC(C)n1nc(-c2ccc3nc(N4CCOCC4)sc3c2)c2c(N)ncnc21 [Compound 14]", "pIC50", "< 6.00"),
    ("CNC(=O)Nc1nc2ccc(-c3nn(C(C)C)c4ncnc(N)c34)cc2s1 [Compound 20]", "pIC50", "≥ 7.30"),
    ("CCNc1nc2ccc(-c3nn(C(C)C)c4ncnc(N)c34)cc2s1 [Compound 12]", "pIC50", "≥ 6.30"),
    ("CC(=O)Nc1nc2ccc(-c3nn(C4CCOCC4)c4ncnc(N)c34)cc2s1 [Compound 19]", "pIC50", "≥ 7.30"),
    ("CC(C)n1nc(-c2ccc3nc(NC4CC4)sc3c2)c2c(N)ncnc21 [Compound 15]", "pIC50", "≥ 6.30"),
    ("CC(C)C(=O)Nc1nc2ccc(-c3nn(C(C)C)c4ncnc(N)c34)cc2s1 [Compound 7]", "pIC50", "< 6.00"),
    ("CC(=O)Nc1nc2ccc(-c3nn(C4CCC4)c4ncnc(N)c34)cc2s1 [Compound 10]", "pIC50", "≥ 7.00"),
    ("CNC(=O)Nc1nc2ccc(-c3cn(C4CCN(C(C)=O)CC4)c4ncnc(N)c34)cc2s1 [Compound 23]", "pIC50", "≥ 7.30"),
]

* * *

Data export: IC50 values recorded with PI3K alpha (Homo sapiens, UniProt P42336).

# Structure Notation, IC50
data = [
    ("CC(C)n1nc(-c2ccc3nc(NCCN4CCOCC4)sc3c2)c2c(N)ncnc21", "> 1000 nM"),
    ("CC(=O)Nc1nc2ccc(-c3nn(C4CCOCC4)c4ncnc(N)c34)cc2s1", "≤ 500 nM"),
    ("CCC(=O)Nc1nc2ccc(-c3nn(C(C)C)c4ncnc(N)c34)cc2s1", "≤ 500 nM"),
    ("CCn1nc(-c2ccc3nc(NC(C)=O)sc3c2)c2c(N)ncnc21", "≤ 100 nM"),
    ("CC(C)n1nc(-c2ccc3nc(N)sc3c2)c2c(N)ncnc21", "≤ 500 nM"),
    ("CC(=O)Nc1nc2ccc(-c3nn(C(C)C)c4ncnc(N)c34)cc2s1", "≤ 500 nM"),
    ("CNc1nc2ccc(-c3nn(C(C)C)c4ncnc(N)c34)cc2s1", "≤ 100 nM"),
    ("CCNc1nc2ccc(-c3nn(C(C)C)c4ncnc(N)c34)cc2s1", "≤ 500 nM"),
    ("CC(=O)Nc1nc2ccc(-c3nn(C4CCC4)c4ncnc(N)c34)cc2s1", "≤ 100 nM"),
]

* * *

Tgt: PI3K delta (Homo sapiens, UniProt O00329)
Sequence (O00329 whole entry): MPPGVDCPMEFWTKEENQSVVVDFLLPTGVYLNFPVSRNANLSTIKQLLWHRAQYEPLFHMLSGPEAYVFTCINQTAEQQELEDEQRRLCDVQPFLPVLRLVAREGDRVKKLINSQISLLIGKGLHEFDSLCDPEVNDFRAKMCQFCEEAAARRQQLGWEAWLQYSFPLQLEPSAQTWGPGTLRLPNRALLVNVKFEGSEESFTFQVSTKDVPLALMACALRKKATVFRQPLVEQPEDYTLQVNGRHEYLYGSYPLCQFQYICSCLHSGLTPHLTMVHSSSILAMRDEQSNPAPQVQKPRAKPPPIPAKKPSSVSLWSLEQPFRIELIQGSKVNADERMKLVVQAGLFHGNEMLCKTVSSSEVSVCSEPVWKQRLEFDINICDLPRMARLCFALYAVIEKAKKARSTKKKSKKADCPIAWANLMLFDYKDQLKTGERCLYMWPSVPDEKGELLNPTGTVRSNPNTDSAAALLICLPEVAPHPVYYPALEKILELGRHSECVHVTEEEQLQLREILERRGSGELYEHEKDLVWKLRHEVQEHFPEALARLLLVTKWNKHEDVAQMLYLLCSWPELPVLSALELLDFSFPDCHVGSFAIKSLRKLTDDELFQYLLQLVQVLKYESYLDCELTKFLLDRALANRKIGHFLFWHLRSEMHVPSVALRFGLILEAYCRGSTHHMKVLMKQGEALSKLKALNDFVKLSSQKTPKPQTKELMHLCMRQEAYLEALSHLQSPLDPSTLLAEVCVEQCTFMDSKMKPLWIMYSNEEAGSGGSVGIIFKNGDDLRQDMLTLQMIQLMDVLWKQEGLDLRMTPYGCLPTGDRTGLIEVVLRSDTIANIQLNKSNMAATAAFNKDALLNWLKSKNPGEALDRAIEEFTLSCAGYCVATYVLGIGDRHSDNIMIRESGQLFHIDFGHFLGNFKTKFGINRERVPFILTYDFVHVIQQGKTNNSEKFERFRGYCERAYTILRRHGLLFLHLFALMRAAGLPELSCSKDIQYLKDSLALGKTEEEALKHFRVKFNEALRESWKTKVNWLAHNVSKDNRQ
Sequence (P27986 whole entry partner): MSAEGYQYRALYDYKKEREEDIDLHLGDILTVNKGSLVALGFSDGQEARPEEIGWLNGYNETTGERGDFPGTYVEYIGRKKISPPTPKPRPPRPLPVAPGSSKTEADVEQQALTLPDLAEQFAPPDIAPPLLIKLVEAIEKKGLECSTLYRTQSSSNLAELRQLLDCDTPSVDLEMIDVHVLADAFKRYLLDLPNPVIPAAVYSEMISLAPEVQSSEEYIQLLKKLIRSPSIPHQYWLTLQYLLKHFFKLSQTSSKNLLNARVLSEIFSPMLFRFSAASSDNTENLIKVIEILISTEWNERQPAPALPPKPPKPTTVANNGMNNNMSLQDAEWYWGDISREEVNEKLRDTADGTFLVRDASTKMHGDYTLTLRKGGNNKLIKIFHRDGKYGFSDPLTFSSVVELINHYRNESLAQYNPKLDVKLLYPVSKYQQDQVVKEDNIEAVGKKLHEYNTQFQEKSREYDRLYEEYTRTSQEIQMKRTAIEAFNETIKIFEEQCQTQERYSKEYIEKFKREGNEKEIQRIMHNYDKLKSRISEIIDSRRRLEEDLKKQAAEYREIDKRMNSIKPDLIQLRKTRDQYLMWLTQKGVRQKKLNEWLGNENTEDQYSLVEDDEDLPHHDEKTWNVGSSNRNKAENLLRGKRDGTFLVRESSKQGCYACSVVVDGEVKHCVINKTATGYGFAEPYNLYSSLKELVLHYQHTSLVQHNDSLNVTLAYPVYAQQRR
Assay Name: PI3K delta inhibition assay
Run Parameters: binned
pIC50: −log10 of the molar value.

# Structure Notation, pIC50
measured = [
    ("CNc1nc2ccc(-c3nn(C(C)C)c4ncnc(N)c34)cc2s1", "≥ 6.30"),
    ("CC(=O)Nc1nc2ccc(-c3nn(C4CCC4)c4ncnc(N)c34)cc2s1", "≥ 7.00"),
    ("CC(C)n1nc(-c2ccc3nc(N)sc3c2)c2c(N)ncnc21", "≥ 7.00"),
    ("CCNc1nc2ccc(-c3nn(C(C)C)c4ncnc(N)c34)cc2s1", "≥ 6.00"),
]

* * *

Data export: IC50 values recorded with UniProt P42345.

# Molecule, Tgt, IC50
measured = [
    ("CC(C)n1nc(-c2ccc3ncsc3c2)c2c(N)ncnc21 [Compound 2]", "UniProt P42345", "> 1000 nM"),
    ("CC(=O)Nc1nc2ccc(-c3nn(C)c4ncnc(N)c34)cc2s1 [Compound 6]", "UniProt P42345", "> 1000 nM"),
    ("CC(=O)Nc1nc2cc(-c3nn(C(C)C)c4ncnc(N)c34)ccc2s1 [Compound 17]", "UniProt P42345", "≤ 1000 nM"),
    ("CNC(=O)Nc1nc2ccc(-c3cn(C(C)C)c4ncnc(N)c34)cc2s1 [Compound 22]", "UniProt P42345", "≤ 50 nM"),
    ("CNC(=O)Cn1nc(-c2ccc3nc(NC(C)=O)sc3c2)c2c(N)ncnc21 [Compound 18]", "UniProt P42345", "> 1000 nM"),
    ("CC(C)n1nc(-c2ccc3nc(N)sc3c2)c2c(N)ncnc21 [Compound 3]", "UniProt P42345", "≤ 50 nM"),
    ("CC(=O)Nc1nc2ccc(-c3nn(C4CCCC4)c4ncnc(N)c34)cc2s1 [Compound 4]", "UniProt P42345", "≤ 50 nM"),
    ("CNC(=O)Nc1nc2ccc(-c3cn(C4CCOCC4)c4ncnc(N)c34)cc2s1 [Compound 21]", "UniProt P42345", "≤ 50 nM"),
    ("CC(C)n1nc(-c2ccc3nc(NCCO)sc3c2)c2c(N)ncnc21 [Compound 16]", "UniProt P42345", "≤ 1000 nM"),
]

* * *

Data export: pIC50 values recorded with PI3K beta (Homo sapiens).
Sequence (P42338 whole entry, one chain of several): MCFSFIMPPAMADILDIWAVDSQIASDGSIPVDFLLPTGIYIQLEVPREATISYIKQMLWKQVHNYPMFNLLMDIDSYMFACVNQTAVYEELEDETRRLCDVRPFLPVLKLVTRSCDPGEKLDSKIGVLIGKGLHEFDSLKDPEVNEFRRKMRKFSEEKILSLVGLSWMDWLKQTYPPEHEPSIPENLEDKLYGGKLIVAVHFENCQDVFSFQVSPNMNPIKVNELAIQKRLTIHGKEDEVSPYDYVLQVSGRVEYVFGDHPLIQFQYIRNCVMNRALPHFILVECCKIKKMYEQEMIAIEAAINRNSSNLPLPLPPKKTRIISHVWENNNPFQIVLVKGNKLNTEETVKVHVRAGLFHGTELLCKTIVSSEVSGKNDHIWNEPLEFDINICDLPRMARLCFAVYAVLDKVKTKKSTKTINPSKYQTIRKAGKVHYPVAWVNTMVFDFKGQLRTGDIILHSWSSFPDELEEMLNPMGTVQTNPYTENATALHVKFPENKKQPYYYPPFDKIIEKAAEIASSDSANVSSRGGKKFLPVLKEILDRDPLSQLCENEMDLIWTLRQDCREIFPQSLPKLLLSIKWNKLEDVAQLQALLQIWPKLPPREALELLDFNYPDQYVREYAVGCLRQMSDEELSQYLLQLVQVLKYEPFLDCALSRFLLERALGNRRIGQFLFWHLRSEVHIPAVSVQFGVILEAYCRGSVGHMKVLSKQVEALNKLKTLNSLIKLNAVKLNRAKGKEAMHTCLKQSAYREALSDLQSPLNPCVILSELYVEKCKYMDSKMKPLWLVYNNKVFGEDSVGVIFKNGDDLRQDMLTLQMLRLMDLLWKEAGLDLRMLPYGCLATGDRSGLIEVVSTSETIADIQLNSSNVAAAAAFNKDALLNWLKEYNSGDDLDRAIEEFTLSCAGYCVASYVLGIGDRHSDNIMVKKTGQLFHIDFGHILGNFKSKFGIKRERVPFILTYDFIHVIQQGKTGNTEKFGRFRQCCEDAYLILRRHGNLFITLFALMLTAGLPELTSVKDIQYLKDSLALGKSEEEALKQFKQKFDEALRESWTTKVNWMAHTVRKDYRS
pIC50: −log10 of the molar value.
Parameter Measured: pIC50

# Structure Notation, Tgt, Parameter Measured, Measured
measured = [
    ("CNc1nc2ccc(-c3nn(C(C)C)c4ncnc(N)c34)cc2s1", "PI3K beta (Homo sapiens)", "pIC50", "< 6.00"),
    ("CNC(=O)Nc1nc2ccc(-c3cn(C4CCN(C(C)=O)CC4)c4ncnc(N)c34)cc2s1", "PI3K beta (Homo sapiens)", "pIC50", "≥ 7.00"),
    ("CC(=O)Nc1nc2ccc(-c3nn(C4CCCC4)c4ncnc(N)c34)cc2s1", "PI3K beta (Homo sapiens)", "pIC50", "< 6.00"),
    ("CC(C)n1nc(-c2ccc3nc(NC4CC4)sc3c2)c2c(N)ncnc21", "PI3K beta (Homo sapiens)", "pIC50", "< 6.00"),
    ("CCn1nc(-c2ccc3nc(NC(C)=O)sc3c2)c2c(N)ncnc21", "PI3K beta (Homo sapiens)", "pIC50", "< 6.00"),
    ("CNC(=O)Cn1nc(-c2ccc3nc(NC(C)=O)sc3c2)c2c(N)ncnc21", "PI3K beta (Homo sapiens)", "pIC50", "< 6.00"),
    ("CC(C)n1nc(-c2ccc3nc(N)sc3c2)c2c(N)ncnc21", "PI3K beta (Homo sapiens)", "pIC50", "< 6.00"),
    ("CC(=O)Nc1nc2ccc(-c3nn(C(C)C)c4ncnc(N)c34)cc2s1", "PI3K beta (Homo sapiens)", "pIC50", "< 6.00"),
]

* * *

Data export: IC50 values recorded with mTORC (Homo sapiens, UniProt P42345).
Sequence (P42345 1360-2549 limits assumed): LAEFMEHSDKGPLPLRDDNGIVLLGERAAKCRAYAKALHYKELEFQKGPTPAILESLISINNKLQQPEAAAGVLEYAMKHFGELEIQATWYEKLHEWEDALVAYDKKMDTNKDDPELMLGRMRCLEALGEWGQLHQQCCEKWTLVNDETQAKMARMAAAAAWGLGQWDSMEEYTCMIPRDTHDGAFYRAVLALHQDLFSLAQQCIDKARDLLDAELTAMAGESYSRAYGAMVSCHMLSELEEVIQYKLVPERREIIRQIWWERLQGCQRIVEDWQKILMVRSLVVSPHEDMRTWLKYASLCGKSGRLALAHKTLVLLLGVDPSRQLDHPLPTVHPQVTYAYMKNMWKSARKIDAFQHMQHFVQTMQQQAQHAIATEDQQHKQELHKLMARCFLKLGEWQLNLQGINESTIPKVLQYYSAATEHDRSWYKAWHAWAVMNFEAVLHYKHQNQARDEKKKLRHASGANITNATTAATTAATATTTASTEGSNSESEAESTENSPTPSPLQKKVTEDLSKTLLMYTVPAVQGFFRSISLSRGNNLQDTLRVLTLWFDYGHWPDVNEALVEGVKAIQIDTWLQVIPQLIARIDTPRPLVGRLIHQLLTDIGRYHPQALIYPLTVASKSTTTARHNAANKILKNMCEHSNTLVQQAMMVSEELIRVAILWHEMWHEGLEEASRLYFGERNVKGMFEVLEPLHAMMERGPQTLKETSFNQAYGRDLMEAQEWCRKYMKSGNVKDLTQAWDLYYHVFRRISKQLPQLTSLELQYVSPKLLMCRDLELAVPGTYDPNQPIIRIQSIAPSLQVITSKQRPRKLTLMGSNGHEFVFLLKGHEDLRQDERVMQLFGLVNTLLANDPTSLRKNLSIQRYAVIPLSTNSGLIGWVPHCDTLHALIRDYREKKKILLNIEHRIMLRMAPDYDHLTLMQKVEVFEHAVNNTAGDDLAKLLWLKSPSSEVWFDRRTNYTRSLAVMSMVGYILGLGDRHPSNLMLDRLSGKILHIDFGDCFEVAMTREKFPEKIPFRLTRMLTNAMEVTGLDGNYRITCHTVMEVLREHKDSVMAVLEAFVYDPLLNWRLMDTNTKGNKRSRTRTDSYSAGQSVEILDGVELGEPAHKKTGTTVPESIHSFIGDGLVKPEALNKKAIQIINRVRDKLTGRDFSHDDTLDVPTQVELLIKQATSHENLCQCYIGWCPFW
Parameter Measured: IC50

# Molecule, Measured
measured = [
    ("CC(=O)Nc1nc2ccc(-c3nn(C(C)C)c4ncnc(N)c34)cc2s1 [Compound 1]", "≤ 50 nM"),
    ("CC(C)n1nc(-c2ccc3nc(NC(=O)C4CC4)sc3c2)c2c(N)ncnc21 [Compound 8]", "≤ 500 nM"),
    ("CNc1nc2ccc(-c3nn(C(C)C)c4ncnc(N)c34)cc2s1 [Compound 11]", "≤ 50 nM"),
    ("CC(C)n1nc(-c2ccc3nc(NCCN4CCOCC4)sc3c2)c2c(N)ncnc21 [Compound 13]", "> 1000 nM"),
    ("CCn1nc(-c2ccc3nc(NC(C)=O)sc3c2)c2c(N)ncnc21 [Compound 5]", "≤ 50 nM"),
]
